# System: NMRI mice
# measurement notes: Mouse formalin test, second phase, oral administration
# Assay type: in vivo
# particulars: 15 min before formalin, licking 20 to 25 min after injection
Assignment: determine reported ED50 for the given compounds.
Use mg/kg as the unit, but write only the number.

# get_value(readout='ED50', item= O=c1[nH]c2ccc([S+]([O-])CCN3CCC(Cc4ccc(F)cc4)CC3)cc2o1 (stereo not shown) [CI-1041] )
2.4

Need ED50 of Cc1ccc(CC2CCN(C(=O)C(=O)Nc3ccc4c(c3)CC(=O)N4)CC2)cc1 [B] , thanks.
0.48

What measured ED50 goes with C[C@]12N[C@H](Cc3ccccc31)c1ccccc12 [MK-801] ?
0.15

Could you share which ED50 value was measured for O=C(Nc1ccc2[nH]c(=O)oc2c1)C(=O)N1CCC(Cc2ccccc2)CC1 [A] ?
0.85

Would you kindly share the measured ED50 for O=C(Nc1ccc2[nH]c(=O)oc2c1)C(=O)N1CCC(=Cc2ccccc2)CC1 [Compound 1] ?
1
